Origin of the recorded values: patent US4557754A

assay.details: Acute toxicity test
Assay type: in vivo, white mice
settings: mouse, in vivo, po; mice, enteral, 24 hours
property.measured: LD50 at 24 h (mg/kg)
Report the figure in mg/kg without appending any unit label.

Please fill in: LD50 at 24 h reported for CCCCCCCCCCOC(=O)C[N+](C)(C)CCSCC[N+](C)(C)CC(=O)OCCCCCCCCCC = 1220

====

assay.details: Acute toxicity test
Assay type: in vivo
settings: rat, in vivo, ip, rats, intraperitoneal
property.measured: LD50 at 24 h (mg/kg)
Report the figure in mg/kg without appending any unit label.

Please fill in: LD50 at 24 h reported for CCCCCCCCCCOC(=O)C[N+](C)(C)CCSCC[N+](C)(C)CC(=O)OCCCCCCCCCC = 67.7
